# credit: the Human Domainome abundance scans (Beltran et al. 2025)

B1: Lysine-specific demethylase 2B, residues 656 to 722; numbered along this chain, Q8NHM5 (parent)
chain: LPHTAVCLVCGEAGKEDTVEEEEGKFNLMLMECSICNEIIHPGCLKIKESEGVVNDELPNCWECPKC

- Variants of: B1
- Method description: abundance fitness (aPCA) (normalised: wild type 0, dead -1); higher = more abundant; growth selection in yeast, the domain comes from the species named
- Protocol conditions: Homo sapiens
Property measured: abundance fitness
Could you respond with only the numeric value?

Q. Tell me abundance fitness reported for A5L
A. -0.004

Q. Tell me abundance fitness reported for A13L
A. -0.077

Q. Tell me abundance fitness reported for N27Y
A. -0.179

Q. Tell me abundance fitness reported for V53M
A. -0.045

Q. Tell me abundance fitness reported for D17E
A. -0.069

Q. Tell me abundance fitness reported for D17S
A. -0.083

Q. Tell me abundance fitness reported for I39A
A. -0.029

Q. Tell me abundance fitness reported for L30H
A. -0.603

Q. Tell me abundance fitness reported for S34A
A. -0.273

Q. Tell me abundance fitness reported for N60L
A. -0.3

Q. Tell me abundance fitness reported for F26E
A. -0.176

Q. Tell me abundance fitness reported for V9G
A. -0.273

Q. Tell me abundance fitness reported for L1G
A. -0.129

Q. Tell me abundance fitness reported for E12T
A. 0.045

Q. Tell me abundance fitness reported for A13S
A. 0.177

Q. Tell me abundance fitness reported for C44T
A. -0.982

Q. Tell me abundance fitness reported for M29D
A. -0.552

Q. Tell me abundance fitness reported for D17G
A. 0.104

Q. Tell me abundance fitness reported for V9D
A. -0.287

Q. Tell me abundance fitness reported for V9S
A. -0.1

Q. Tell me abundance fitness reported for K15N
A. -0.751

Q. Tell me abundance fitness reported for E49R
A. -0.103
